System: male spontaneously hypertensive rats
Assay remarks: Decrease in systolic blood pressure in spontaneously hypertensive rats after intravenous bolus injection, indirect (tail-cuff) method
Assay type: in vivo, rat
Test conditions: dose 10 mg/kg i.v. bolus, 0.5 hour after administration
Structures can show the parent of a compound that is named as a salt.
Assignment: determine reported Decrease in systolic blood pressure (mmHg) time after administration (hour) 0.5 for the given compounds.
Reply numerically in mmHg, unit not repeated.

Enquiry: For the compound Cl.O=[N+]([O-])c1cccc(CN2CCC(=C3c4ccccc4C=Cc4ccccc43)CC2)c1 , what Decrease in systolic blood pressure (mmHg) time after administration (hour) 0.5 is on record?
Return: −43

Enquiry: Now the same for C(=Cc1ccccc1)CN1CCC(=C2c3ccccc3C=Cc3ccccc32)CC1.Cl
Return: −140

Enquiry: Now the same for Cl.OC1CCC(CCCCN2CCC(=C3c4ccccc4C=Cc4ccccc43)CC2)CC1 (centres unmarked)
Return: −109

Enquiry: Now the same for C1=Cc2ccccc2C(=C2CCN(CCCCCC3CCCCC3)CC2)c2ccccc21 [Example 11, hydrochloride]
Return: −166

Enquiry: Now the same for C1=Cc2ccccc2C(=C2CCN(CCCC3CCCCN3)CC2)c2ccccc21.Cl.Cl (centres unmarked)
Return: −62

Enquiry: Now the same for Cl.OC(CCN1CCC(=C2c3ccccc3C=Cc3ccccc32)CC1)c1ccc(F)cc1 (centres unmarked)
Return: −88

Enquiry: Now the same for COc1ccc(C(=O)NCCN2CCC(=C3c4ccccc4C=Cc4ccccc43)CC2)cc1OC.Cl
Return: −28

Enquiry: Now the same for CCOc1ccc(C(=O)CCCN2CCC(=C3c4ccccc4C=Cc4ccccc43)CC2)cc1OCC.Cl
Return: −59

---

Tested on: male spontaneously hypertensive rats
Assay remarks: Decrease in systolic blood pressure in spontaneously hypertensive rats after intravenous bolus injection, indirect (tail-cuff) method
Assay type: in vivo, rat
Test conditions: dose 10 mg/kg i.v. bolus, 0.5 hour after administration
Assignment: determine reported Decrease in systolic blood pressure (mmHg) time after administration (hour) 0.5 for the given molecules.
Reply numerically in mmHg, unit not repeated.

Enquiry: Lab request: please report Decrease in systolic blood pressure (mmHg) time after administration (hour) 0.5 under test system male spontaneously hypertensive rats for Cl.c1ccc2c(c1)CCc1ccccc1C2=C1CCN(CCCCC2CCCCC2)CC1
Return: −95

Enquiry: Now the same for Cl.O=C(C=Cc1ccccc1)Nc1ccccc1SCCCN1CCC(=C2c3ccccc3C=Cc3ccccc32)CC1
Return: −78

Enquiry: Now the same for C1=Cc2ccccc2C(=C2CCN(CCCSc3ccccc3)CC2)c2ccccc21.Cl
Return: −34

Enquiry: Now the same for Cl.O=c1[nH]c2ccccc2c(=O)n1CCN1CCC(=C2c3ccccc3C=Cc3ccccc32)CC1
Return: −52

Enquiry: Now the same for COc1cc(C=CCN2CCC(=C3c4ccccc4C=Cc4ccccc43)CC2)ccc1[N+](=O)[O-].Cl
Return: −112

Enquiry: Now the same for CC(=O)N(CCCN1CCC(=C2c3ccccc3C=Cc3ccccc32)CC1)C1CCCCC1.Cl
Return: −40

Enquiry: Now the same for COc1ccc(C(=O)CCCCN2CCC(=C3c4ccccc4C=Cc4ccccc43)CC2)cc1OC.Cl
Return: −130

Enquiry: Now the same for COc1ccc(C2(CCCN3CCC(=C4c5ccccc5C=Cc5ccccc54)CC3)OCCO2)cc1OC.Cl
Return: −94

---

System: male spontaneously hypertensive rats
Assay remarks: Decrease in systolic blood pressure in spontaneously hypertensive rats after intravenous bolus injection, indirect (tail-cuff) method
Type: in vivo, rat
Test conditions: dose 10 mg/kg i.v. bolus, 0.5 hour after administration
Metric: Decrease in systolic blood pressure (mmHg) time after administration (hour) 0.5
Reply numerically in mmHg, unit not repeated.

Enquiry: Lab request: please report Decrease in systolic blood pressure (mmHg) time after administration (hour) 0.5 under test system male spontaneously hypertensive rats for COc1cc(C=CCN2CCC(=C3c4ccccc4C=Cc4ccccc43)CC2)cc(OC)c1OC.Cl
Return: −147

Enquiry: Now the same for Cl.Oc1cccc(C=CCN2CCC(=C3c4ccccc4C=Cc4ccccc43)CC2)c1
Return: −98

Enquiry: Now the same for CCOC(=O)C1(CCCCN2CCC(=C3c4ccccc4C=Cc4ccccc43)CC2)CCCCC1.Cl
Return: 143

Enquiry: Now the same for O=C(O)CCCN1CCC(=C2c3ccccc3C=Cc3ccccc32)CC1
Return: −10

Enquiry: Now the same for C1=Cc2ccccc2C(=C2CCN(CCCOC3CCCCC3)CC2)c2ccccc21.Cl
Return: −97

Enquiry: Now the same for COc1cc(CCCN2CCC(=C3c4ccccc4C=Cc4ccccc43)CC2)cc(OC)c1OC.Cl.Cl
Return: −118

Enquiry: Now the same for Cl.Cl.Nc1ccccc1CCCN1CCC(=C2c3ccccc3C=Cc3ccccc32)CC1
Return: −110

Enquiry: Now the same for C1=Cc2ccccc2C(=C2CCN(Cc3ccncc3)CC2)c2ccccc21.Cl.Cl
Return: −1

Enquiry: Now the same for CCOC(=O)CCCN1CCC(=C2c3ccccc3C=Cc3ccccc32)CC1.Cl
Return: −15

Enquiry: Now the same for COc1ccc(C(=O)CCCN2CCC(=C3c4ccccc4C=Cc4ccccc43)CC2)c(OC)c1OC.Cl
Return: −122

Enquiry: Now the same for C1=Cc2ccccc2C(=C2CCN(CCC3Cc4ccccc4C3)CC2)c2ccccc21.Cl
Return: −90

Enquiry: Now the same for CCC(=O)Nc1ccc(C=CCN2CCC(=C3c4ccccc4C=Cc4ccccc43)CC2)cc1.Cl
Return: −99

Enquiry: Now the same for Cl.O=C(CCCN1CCC(=C2c3ccccc3C=Cc3ccccc32)CC1)c1ccco1
Return: −35

Enquiry: Now the same for CCCCCCCCCCCN1CCC(=C2c3ccccc3C=Cc3ccccc32)CC1.Cl
Return: −100

Enquiry: Now the same for Cl.Fc1ccc(C2(CCCN3CCC(=C4c5ccccc5C=Cc5ccccc54)CC3)OCCO2)cc1
Return: −90

Enquiry: Now the same for COc1cc(C(C#N)(CCCN2CCC(=C3c4ccccc4C=Cc4ccccc43)CC2)C(C)C)cc(OC)c1OC.Cl (centres unmarked)
Return: −87

Enquiry: Now the same for C1=Cc2ccccc2C(=C2CCN(CCCCCCC3CCCCC3)CC2)c2ccccc21.Cl
Return: −131

---

Assignment: determine reported Decrease in systolic blood pressure (mmHg) time after administration (hour) 4 for the given compounds.
Test system: male spontaneously hypertensive rats
Assay remarks: Decrease in systolic blood pressure in spontaneously hypertensive rats after intravenous bolus injection, indirect (tail-cuff) method
Type: in vivo, rat
Test conditions: dose 3 mg/kg i.v. bolus, 4 hours after administration
Protocol: As test animals, four male spontaneously hypertensive rats (weight 400 to 440 g) that were sufficiently adapted for feeding and in which hypertension was confirmed were used. Physiological saline aqueous solution containing 2.5% Nicolle and 2.5% ethanol of sample was intravenously administered by bolus injection at a dose of 1 ml per 1 kg of body weight. Systolic blood pressure after administration was measured by the indirect (tail-cuff) method.
Reply numerically in mmHg, unit not repeated.

Enquiry: Lab request: please report Decrease in systolic blood pressure (mmHg) time after administration (hour) 4 under test system male spontaneously hypertensive rats for Cl.O=[N+]([O-])c1cccc2c1CC(CCN1CCC(=C3c4ccccc4C=Cc4ccccc43)CC1)C2 (stereo not shown) [Example 354]
Return: −8

Enquiry: Now the same for CC(=O)Nc1ccc2c(c1)CC(CN1CCC(=C3c4ccccc4C=Cc4ccccc43)CC1)C2.Cl (stereo not shown) [Example 334]
Return: −93

Enquiry: Now the same for Cl.Cl.Nc1ccc(CN2CCC(=C3c4ccccc4C=Cc4ccccc43)CC2)cc1 [Example 140]
Return: −101

Enquiry: Now the same for COc1cc(C=CCN2CCC(=C3c4ccccc4C=Cc4ccccc43)CC2)ccc1O.Cl [Example 365]
Return: −56

---

Test system: male spontaneously hypertensive rats
Assay remarks: Decrease in systolic blood pressure in spontaneously hypertensive rats after intravenous bolus injection, indirect (tail-cuff) method
Format: in vivo, rat
Test conditions: dose 10 mg/kg i.v. bolus, 0.5 hour after administration
Use -100 mmHg as the dividing line for Decrease in systolic blood pressure (mmHg) time after administration (hour) 0.5, with the line itself on the true side and lower values as false.

Enquiry: Given COc1ccc(C(=O)CCN2CCC(=C3c4ccccc4C=Cc4ccccc43)CC2)cc1OC.Cl , state whether its Decrease in systolic blood pressure (mmHg) time after administration (hour) 0.5 is at least -100 mmHg.
Return: false

Enquiry: Now the same for O=C(C1CCc2ccccc2C1)N1CCC(=C2c3ccccc3C=Cc3ccccc32)CC1 (centres unmarked)
Return: true

Enquiry: Now the same for CC(C)C(C#N)(CCCN1CCC(=C2c3ccccc3C=Cc3ccccc32)CC1)c1cccc(C(F)(F)F)c1.Cl (centres unmarked)
Return: false

Enquiry: Now the same for C1=Cc2ccccc2C(=C2CCN(CCCC3CCCCC3)CC2)c2ccccc21.Cl
Return: true

Enquiry: Now the same for CCCCCCCCCCN1CCC(=C2c3ccccc3CCc3ccccc32)CC1.Cl
Return: true

Enquiry: Now the same for C1=Cc2ccccc2C(=C2CCN(CCCCc3ccc[nH]3)CC2)c2ccccc21.Cl
Return: false

Enquiry: Now the same for COc1ccccc1CCCN1CCC(=C2c3ccccc3C=Cc3ccccc32)CC1.Cl
Return: false

Enquiry: Now the same for Cl.O=[N+]([O-])c1ccc(CCCN2CCC(=C3c4ccccc4C=Cc4ccccc43)CC2)cc1
Return: false
